test system: Bovine viral diarrhea virus 1; test: Antiviral activity against Bovine viral diarrhea virus; assay type: functional, organism-based; conditions: Bovine viral diarrhea virus isolates and strains
pEC50: −log10 of the molar value.
measured quantity: pEC50

Q: Determine its reported pEC50: COc1ccc2c(c1)[C@@H]1C[C@]1(C(=O)N1[C@@H]3CC[C@H]1CN(C)C3)Cn1c-2c(C2CCCCC2)c2ccc(C(=O)NS(=O)(=O)N(C)C)cc21 [BECLABUVIR]
A: < 4.85

====

assay: Aqueous solubility of the compound at pH 7.8; settings: buffer
measured quantity: solubility

Q: Determine its reported solubility: COc1ccc2c(c1)[C@@H]1C[C@]1(C(=O)N1[C@@H]3CC[C@H]1CN(C)C3)Cn1c-2c(C2CCCCC2)c2ccc(C(=O)NS(=O)(=O)N(C)C)cc21
A: > 1600 µg/mL

====

assay: Drug uptake in rat liver at 10 mg/kg, po after 6 hrs; type: ADME, organism-based; set-up: dose 10 mg/kg, route oral; conditions: read-out: Drug uptake
measured quantity: concentration at 6 h (µM)
Write the number in µM without appending the unit.

Q: Determine its reported concentration at 6 h: COc1ccc2c(c1)[C@@H]1C[C@]1(C(=O)N1C3CC1CN(C)C3)Cn1c-2c(C2CCCCC2)c2ccc(C(=O)NS(=O)(=O)N(C)C)cc21
A: 14.3

====

molecular target: PXR (NR1I2) (Homo sapiens, UniProt O75469); assay: Transactivation of human PXR expressed in human HepG2 cells by luciferase reporter gene assay relative to control; format: cell-based; conditions: HepG2 cells expressing human PXR, read-out: %max
Sequence (O75469 whole entry): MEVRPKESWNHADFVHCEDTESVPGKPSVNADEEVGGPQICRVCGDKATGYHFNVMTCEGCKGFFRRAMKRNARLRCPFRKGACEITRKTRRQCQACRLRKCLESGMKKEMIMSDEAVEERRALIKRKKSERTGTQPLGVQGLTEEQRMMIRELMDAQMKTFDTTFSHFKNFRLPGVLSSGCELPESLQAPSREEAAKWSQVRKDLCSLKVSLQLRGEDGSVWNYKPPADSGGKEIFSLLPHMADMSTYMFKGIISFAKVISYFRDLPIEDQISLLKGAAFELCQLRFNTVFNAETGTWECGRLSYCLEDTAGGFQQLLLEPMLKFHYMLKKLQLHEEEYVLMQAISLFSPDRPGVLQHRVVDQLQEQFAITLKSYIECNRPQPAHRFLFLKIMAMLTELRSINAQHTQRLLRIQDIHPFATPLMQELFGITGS
Exercise: state measured Emax for each of the compounds provided.
Write the number in % without appending the unit.

Q: Determine its reported Emax: COc1ccc2c(c1)C1CC1(C(=O)N1CC(O)(C3CC3)C1)Cn1c-2c(C2CCCCC2)c2ccc(C(=O)NS(=O)(=O)N(C)C)cc21 (racemic)
A: 12

Q: Determine its reported Emax: COc1ccc2c(c1)C1CC1(C(=O)N1CC(O)(c3ccccc3)C1)Cn1c-2c(C2CCCCC2)c2ccc(C(=O)NS(=O)(=O)N(C)C)cc21 (racemic)
A: 10

Q: Determine its reported Emax: COc1ccc2c(c1)C1CC1(C(=O)N1C3CCC1CNC3)Cn1c-2c(C2CCCCC2)c2ccc(C(=O)NS(=O)(=O)N(C)C)cc21 (racemic)
A: 31

Q: Determine its reported Emax: COc1ccc2c(c1)C1CC1(C(=O)N1C3CC1CN(Cc1ccccc1)C3)Cn1c-2c(C2CCCCC2)c2ccc(C(=O)NS(=O)(=O)N(C)C)cc21 (racemic)
A: 22

Q: Determine its reported Emax: COC[C@H]1CN(C(=O)[C@]23C[C@H]2c2cc(OC)ccc2-c2c(C4CCCCC4)c4ccc(C(=O)NS(=O)(=O)N(C)C)cc4n2C3)CCO1
A: 12

Q: Determine its reported Emax: COc1ccc2c(c1)C1CC1(C(=O)N1CC(O)(c3ccc(F)cc3)C1)Cn1c-2c(C2CCCCC2)c2ccc(C(=O)NS(=O)(=O)N(C)C)cc21 (racemic)
A: 3

Q: Determine its reported Emax: COc1ccc2c(c1)C1CC1(C(=O)N1CC(O)(C(F)(F)F)C1)Cn1c-2c(C2CCCCC2)c2ccc(C(=O)NS(=O)(=O)N(C)C)cc21 (racemic)
A: 32

Q: Determine its reported Emax: COc1ccc2c(c1)C1CC1(C(=O)N1CC(O)(C(C)C)C1)Cn1c-2c(C2CCCCC2)c2ccc(C(=O)NS(=O)(=O)N(C)C)cc21 (racemic)
A: 14
